Examples of compounds with documented GRinf follow.
- Tested on: Mycobacterium tuberculosis Erdman (autoluminescent)
- ASSAY_INFO: GRinf, maximum normalised growth rate inhibition (unitless (-1 to 1)); higher = less effect (negative = killing)
- EXPERIMENTAL_SETUP: in vitro model: intracellular J774; time point: constant = terminal
Please give the numeric answer without any surrounding text.

# COMPOUND, GRinf
data = [
    ("O=[N+]([O-])c1cn2c(n1)OC[C@@H](OCc1ccc(OC(F)(F)F)cc1)C2 [pretomanid] + CO[C@H]1/C=C/O[C@@]2(C)Oc3c(C)c(O)c4c(O)c(c(/C=N/N5CCN(C6CCCC6)CC5)c(O)c4c3C2=O)NC(=O)/C(C)=C\\C=C\\[C@H](C)[C@H](O)[C@@H](C)[C@@H](O)[C@@H](C)[C@H](OC(C)=O)[C@@H]1C", -0.347),
    ("NNC(=O)c1ccncc1 [isoniazid] + COc1c(N2C[C@@H]3CCCN[C@@H]3C2)c(F)cc2c(=O)c(C(=O)O)cn(C3CC3)c12 [moxifloxacin]", -0.405),
]

Sample COc1nc2ccc(Br)cc2cc1[C@@H](c1ccccc1)[C@@](O)(CCN(C)C)c1cccc2ccccc12 [bedaquiline] + CO[C@H]1/C=C/O[C@@]2(C)Oc3c(C)c(O)c4c(O)c(c(/C=N/N5CCN(C)CC5)c(O)c4c3C2=O)NC(=O)/C(C)=C\C=C\[C@H](C)[C@H](O)[C@@H](C)[C@@H](O)[C@@H](C)[C@H](OC(C)=O)[C@@H]1C [rifampicin] ; GRinf observed: -0.255

Sample CC(=O)NC[C@H]1CN(c2ccc(N3CCOCC3)c(F)c2)C(=O)O1 [linezolid] + NC(=O)c1cnccn1 [pyrazinamide] ; GRinf observed: -0.235

###

- System: Mycobacterium tuberculosis Erdman (autoluminescent)
- ASSAY_INFO: GRinf, maximum normalised growth rate inhibition (three-drug combination) (unitless (-1 to 1)); higher = less effect (negative = killing)
- EXPERIMENTAL_SETUP: in vitro model: cholesterol-high 0.2 mM; time point: constant (~7 days, model-specific)
Examples of molecules with documented GRinf follow.
Please give the numeric answer without any surrounding text.

# MOLECULE, GRinf
records = [
    ("CC[C@@H](CO)NCCN[C@@H](CC)CO [ethambutol] + O=[N+]([O-])c1cn2c(n1)OC[C@@H](OCc1ccc(OC(F)(F)F)cc1)C2 [pretomanid] + CO[C@H]1/C=C/O[C@@]2(C)Oc3c(C)c(O)c4c(O)c(c(/C=N/N5CCN(C6CCCC6)CC5)c(O)c4c3C2=O)NC(=O)/C(C)=C\\C=C\\[C@H](C)[C@H](O)[C@@H](C)[C@@H](O)[C@@H](C)[C@H](OC(C)=O)[C@@H]1C [rifapentine]", -0.056),
]

Sample CC(=O)NC[C@H]1CN(c2ccc(N3CCOCC3)c(F)c2)C(=O)O1 [linezolid] + COc1c(N2C[C@@H]3CCCN[C@@H]3C2)c(F)cc2c(=O)c(C(=O)O)cn(C3CC3)c12 [moxifloxacin] + NC(=O)c1cnccn1 [pyrazinamide] ; GRinf observed: -0.819

###

- System: Mycobacterium tuberculosis Erdman (autoluminescent)
- ASSAY_INFO: total FIC50 (Loewe) at 50% inhibition, three-drug combination (log2); higher = more antagonistic
- EXPERIMENTAL_SETUP: in vitro model: butyrate; time point: terminal (~4-5 doublings, model-specific)
Examples of molecules with documented total FIC50 follow.
Please give the numeric answer without any surrounding text.

Solved cases (3 shown):
# MOLECULE, SYSTEM_TESTED, RECORDED_RESULT
rows = [
    ("NNC(=O)c1ccncc1 [isoniazid] + CC(=O)NC[C@H]1CN(c2ccc(N3CCOCC3)c(F)c2)C(=O)O1 [linezolid] + O=[N+]([O-])c1cn2c(n1)OC[C@@H](OCc1ccc(OC(F)(F)F)cc1)C2 [pretomanid]", "Mycobacterium tuberculosis Erdman (autoluminescent)", 2.83),
    ("COc1c(N2C[C@@H]3CCCN[C@@H]3C2)c(F)cc2c(=O)c(C(=O)O)cn(C3CC3)c12 [moxifloxacin] + NC(=O)c1cnccn1 [pyrazinamide] + CO[C@H]1/C=C/O[C@@]2(C)Oc3c(C)c(O)c4c(O)c(c(/C=N/N5CCN(C)CC5)c(O)c4c3C2=O)NC(=O)/C(C)=C\\C=C\\[C@H](C)[C@H](O)[C@@H](C)[C@@H](O)[C@@H](C)[C@H](OC(C)=O)[C@@H]1C", "Mycobacterium tuberculosis Erdman (autoluminescent)", 0.525),
    ("NNC(=O)c1ccncc1 [isoniazid] + COc1c(N2C[C@@H]3CCCN[C@@H]3C2)c(F)cc2c(=O)c(C(=O)O)cn(C3CC3)c12 [moxifloxacin] + CO[C@H]1/C=C/O[C@@]2(C)Oc3c(C)c(O)c4c(O)c(c(/C=N/N5CCN(C)CC5)c(O)c4c3C2=O)NC(=O)/C(C)=C\\C=C\\[C@H](C)[C@H](O)[C@@H](C)[C@@H](O)[C@@H](C)[C@H](OC(C)=O)[C@@H]1C [rifampicin]", "Mycobacterium tuberculosis Erdman (autoluminescent)", 0.345),
]

Sample CC(=O)NC[C@H]1CN(c2ccc(N3CCOCC3)c(F)c2)C(=O)O1 [linezolid] + NC(=O)c1cnccn1 [pyrazinamide] + CO[C@H]1/C=C/O[C@@]2(C)Oc3c(C)c(O)c4c(O)c(c(/C=N/N5CCN(C)CC5)c(O)c4c3C2=O)NC(=O)/C(C)=C\C=C\[C@H](C)[C@H](O)[C@@H](C)[C@@H](O)[C@@H](C)[C@H](OC(C)=O)[C@@H]1C [rifampicin] ; total FIC50 observed: -0.114

Sample CC[C@@H](CO)NCCN[C@@H](CC)CO [ethambutol] + NC(=O)c1cnccn1 [pyrazinamide] + CO[C@H]1/C=C/O[C@@]2(C)Oc3c(C)c(O)c4c(O)c(c(/C=N/N5CCN(C)CC5)c(O)c4c3C2=O)NC(=O)/C(C)=C\C=C\[C@H](C)[C@H](O)[C@@H](C)[C@@H](O)[C@@H](C)[C@H](OC(C)=O)[C@@H]1C [rifampicin] ; total FIC50 observed: 0.114

Sample CC(=O)NC[C@H]1CN(c2ccc(N3CCOCC3)c(F)c2)C(=O)O1 [linezolid] + COc1c(N2C[C@@H]3CCCN[C@@H]3C2)c(F)cc2c(=O)c(C(=O)O)cn(C3CC3)c12 [moxifloxacin] + CO[C@H]1/C=C/O[C@@]2(C)Oc3c(C)c(O)c4c(O)c(c(/C=N/N5CCN(C)CC5)c(O)c4c3C2=O)NC(=O)/C(C)=C\C=C\[C@H](C)[C@H](O)[C@@H](C)[C@@H](O)[C@@H](C)[C@H](OC(C)=O)[C@@H]1C [rifampicin] ; total FIC50 observed: 0.112

Data provenance is the supplement of paper PMC8617591.
